Can you tell me MIC for the items I'm about to list?
System: S. pneumoniae R6
experiment-notes: Minimal inhibitory concentration, microbroth dilution
Format: cell-based
run-parameters: Streptococcus pneumoniae, R6, read-out: Minimal Inhibitory Concentration S. pneumoniae R6
Give the value, in units of µM, as a plain number.

Lab note: need MIC with S. pneumoniae R6 for entry CN[C@@H]1[C@H](O)[C@H](NC)[C@H]2O[C@@]3(O)C(=O)C[C@@H](C)O[C@H]3O[C@@H]2[C@H]1O [Spectinomycin, spectinomycin, reference compound] , please look it up.
6.3

Now give it for Cc1ccc(NC(=O)N[C@@H](Cc2cc(F)cc(F)c2)C(=O)N[C@@H]2C(=O)N3CCCC3C(=O)N(C)[C@@H](C)C(=O)N[C@@H](C)C(=O)N3C[C@@H](C)CC3C(=O)O[C@H]2C)cc1 (stereo partly shown) too.
0.125

Now give it for Cc1ccc(NC(=O)N[C@@H](Cc2cc(F)cc(F)c2)C(=O)N[C@H]2COC(=O)C3C[C@H](F)CN3C(=O)[C@H](C)NC(=O)C3CCCCN3C(=O)C3CCCN3C2=O)cc1 (stereo partly shown) too.
0.8

Now give it for Cc1ccc(NC(=O)N[C@@H](Cc2cc(F)cc(F)c2)C(=O)N[C@@H]2C(=O)N3CCCC3C(=O)N(C)[C@@H]([C@H](C)O)C(=O)N[C@@H](C)C(=O)N3C[C@@H](C)CC3C(=O)O[C@H]2C)cc1 (stereo partly shown) too.
0.049

Now give it for `Cc1ccc(NC(=O)N[C@@H](Cc2cc(F)cc(F)c2)C(=O)N[C@@H]2C(=O)N3CCC[C@H]3C(=O)N3CCCC[C@H]3C(=O)N[C@@H](C)C(=O)N3CCC[C@H]3C(=O)O[C@H]2C)cc1` too.
0.3

Each recorded value in this set is attributed to patent US9879050B2.
